Ref: the supplement of paper PMC11865577

Tested on: TO-3-N3 (biotin conjugate)
Assay: pull-down binding Z-score (relative to library population); higher = stronger binding
Details: RNA library: Library-2
pull-down binding Z-score: recorded values
Give the figure by itself; no unit, no explanation.

Per the records, this sequence ( UUUGGUAUUACUUUCAGUGGCAAA [hsa-mir-548j] ) has pull-down binding Z-score equal to -0.416

* * *

Test system: TO-N3 (biotin conjugate)
Assay: pull-down binding Z-score (relative to library population); higher = stronger binding
Details: RNA library: Library-2
QUANTITY_KIND: pull-down binding Z-score
Give the figure by itself; no unit, no explanation.

1. UAGUGUUACCACAGAAAUUCUACCAGUGUCUAUGACCAAGACAUCAGUAGAUUGUACAAUGUACAUUUGUGGUGAUUCAACUG [DMSMaPseq_invitro_SARS-CoV-2_Multi_72_ComplexLevel_1] :: 0.228
2. GAUGUUUCUGCCAGUUUAGCGUC [hsa-mir-505] :: 0.0886
3. GUGCAGCUUGUACCUGCAC [hsa-mir-1293] :: -0.0262
4. UUGUUACAUUUUAGGAUUGCUUGCCCCUUGCUCCAAUGGUGCAGGCAGAAGAAAUGCAAACAA [hsa-mir-3973] :: 0.135
5. CAUACAUUUUGAAUAUGUAUG [hsa-mir-299] :: 0.336
6. CUUUCUGUUGUCUAAAAGAAAAGAAAG [hsa-mir-520d] :: -0.415
7. AUUGAGAGUUCCUUCUCCUGCUCCUGAU [hsa-mir-6766] :: -0.462
8. AAACCCGGUAAUUUUAACAAAGACUUCUAUGACUUUGCUGUGUCUAAGGGUUU [SHAPE_invivo_SARS-CoV-2_Motif_278] :: -0.677
9. CCCAAGCAGGCUUUGUGUGAGCAGUGAGGCUAUUUAUUCACUUGGGUGCGAGCUCACACGAAGCCUGCUUGGG [hsa-mir-6839] :: 0.551
10. AUAAGAAAGACAAUUCUUAU [DMSMaPseq_invitro_SARS-CoV-2_Motif_114] :: -1.07

Per the records, this sequence ( AGUGGACGAGUCUCAUUA [hsa-mir-3193] ) has pull-down binding Z-score equal to 0.678

Per the records, this sequence ( AGCGCGGCGACCGUAACUCCU [hsa-mir-1237] ) has pull-down binding Z-score equal to 0.724

Per the records, this sequence ( ACCCGGGUGGUGGAGGUUGCAGUGAGCCAAGAUUGCGCCACUGCACUCCAGCCUGGGC [hsa-mir-1273a] ) has pull-down binding Z-score equal to 1.94

Per the records, this sequence ( UUGAGGGACAUGGUUAAUGGAAUUGUCUCA [hsa-mir-342] ) has pull-down binding Z-score equal to 0.413

Per the records, this sequence ( GCACUCUGUAGUUUGGGUACACAGUGC [hsa-mir-5011] ) has pull-down binding Z-score equal to -0.77

Per the records, this sequence ( UCCUCCACAAAUGCGUGUGGAGGA [hsa-mir-4633] ) has pull-down binding Z-score equal to -1.34

Per the records, this sequence ( CCCAUAUGGACCUGCUAAGCUAUGGA [hsa-mir-1-1] ) has pull-down binding Z-score equal to 0.289

Per the records, this sequence ( GGCCUGGGCCUGGGCCUGGGCCUGGGCCUGGGCCUG [r(GGCCUG)6] ) has pull-down binding Z-score equal to -0.184

Per the records, this sequence ( UAUUUCAUAACAGAUGCGCAAACAGGUUCAUCUAAGUGUGUGUGUUCUGUUAUUGAUUUA ) has pull-down binding Z-score equal to -1.16

Per the records, this sequence ( GCGCCGCCAGAAACUGGCUGCGC [mismatch-CU] ) has pull-down binding Z-score equal to 0.00381

Per the records, this sequence ( GCGCUGCCAGAAACUGGCUUAAGCGC [bulge-UUA] ) has pull-down binding Z-score equal to -0.128

Per the records, this sequence ( GCGCGGCCAGAAACUGGCUGCGC [mismatch-GU] ) has pull-down binding Z-score equal to 0.831

Per the records, this sequence ( CACGAGAUACCAGUGUGCACUUGUG [hsa-mir-542] ) has pull-down binding Z-score equal to -0.441

Per the records, this sequence ( AGAUGAAAUGCCUUUGAUUU [hsa-mir-3658] ) has pull-down binding Z-score equal to -0.715
